Tested on: 276233-004-R-J1-PDC complex spheroid viability
Assay: Anticancer human tumor 276233-004-R-J1-PDC patient-derived colon adenocarcinoma cell line growth inhibition [GQUAD]
Applied Conditions: second compound 10 µM; first compound 3.16 µM; stronger effect = lower value
The label met is reserved for viability, T/C strictly under 40%; not met covers values equal to or above it.

A record lists C#Cc1c(F)ccc2cc(O)cc(-c3ncc4c(N5CC6CCC(C5)N6)nc(OCC56CCCN5CC(F)C6)nc4c3F)c12 (stereo unspecified) + Cc1[nH]c2ccc(F)cc2c1-c1nc2c3cccnc3c3ncccc3c2[nH]1 . Is its viability, T/C below 40%?
met

Another compound to check: Nc1ccn(C2OC(CO)C(O)C2(F)F)c(=O)n1 (stereo unspecified) + Cc1[nH]c2ccc(F)cc2c1-c1nc2c3cccnc3c3ncccc3c2[nH]1
not met

Another compound to check: Cc1cccc(N(C)C(=O)C2C(O)CCN2c2nc(C)cc(C(F)(F)F)c2C#N)c1 (stereo unspecified) + Cc1cnc(CNC(=O)c2c(=O)c3ccc(N4CCCN(C)CC4)nc3n3c2sc2ccccc23)cn1
not met

Another compound to check: CC1COCCN1c1cc(C2(O)CC3CCC(C2)O3)c2cnn(-c3ccn[nH]3)c2n1 (stereo unspecified) + CN(C)c1ccc(Nc2c3ccc(NC(=O)CCN4CCCC4)cc3nc3cc(NC(=O)CCN4CCCC4)ccc23)cc1
met

Another compound to check: CCCS(=O)(=O)Nc1ccc(F)c(C(=O)c2c[nH]c3ncc(-c4ccc(Cl)cc4)cc23)c1F + Cc1[nH]c2ccc(F)cc2c1-c1nc2c3cccnc3c3ncccc3c2[nH]1
not met

Another compound to check: CC1COCCN1c1cc(C2(S(C)(=N)=O)CC2)nc(-c2ccnc3[nH]ccc23)n1 (stereo unspecified) + Cc1cnc(CNC(=O)c2c(=O)c3ccc(N4CCCN(C)CC4)nc3n3c2sc2ccccc23)cn1
not met

---

System: 276233-004-R-J1-PDC complex spheroid viability
Assay: Anticancer human tumor 276233-004-R-J1-PDC cell line growth inhibition [GQUAD];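 further: spheroids exposed to drugs for seven days; 100% = DMSO vehicle control viability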
Applied Conditions: second compound 0.1 µM; first compound 0.0316 µM; stronger effect = lower value
Give viability, T/C for every item shown.

Any idea what viability, T/C was measured for COc1ccc([C@@H](O)c2cc(-c3ncnc4cc(N5CCOCC5)ccc34)c(F)cc2Cl)nn1 + Cc1[nH]c2ccc(F)cc2c1-c1nc2c3cccnc3c3ncccc3c2[nH]1 ?
88.3%

Another molecule to check: C=CCn1c(=O)c2cnc(Nc3ccc(N4CCN(C)CC4)cc3)nc2n1-c1cccc(C(C)(C)O)n1 + Cc1cnc(CNC(=O)c2c(=O)c3ccc(N4CCCN(C)CC4)nc3n3c2sc2ccccc23)cn1
75.9%

Another molecule to check: C#Cc1c(F)ccc2cc(O)cc(-c3ncc4c(N5CC6CCC(C5)N6)nc(OCC56CCCN5CC(F)C6)nc4c3F)c12 (stereo not given) + Cc1cnc(CNC(=O)c2c(=O)c3ccc(N4CCCN(C)CC4)nc3n3c2sc2ccccc23)cn1
95.2%

Another molecule to check: CCCS(=O)(=O)Nc1ccc(F)c(C(=O)c2c[nH]c3ncc(-c4ccc(Cl)cc4)cc23)c1F + Cc1[nH]c2ccc(F)cc2c1-c1nc2c3cccnc3c3ncccc3c2[nH]1
95.7%

Another molecule to check: C=CCn1c(=O)c2cnc(Nc3ccc(N4CCN(C)CC4)cc3)nc2n1-c1cccc(C(C)(C)O)n1 + Cc1[nH]c2ccc(F)cc2c1-c1nc2c3cccnc3c3ncccc3c2[nH]1
79.6%
